Test: NCI Yeast Anticancer Drug Screen. Data for the bub3 strain (AID 167)
Settings: S. cerevisiae bub3 mutant strain, at 50.0 µM, stronger effect = higher value
Procedure: Growth inhibition of yeast strains with defined genetic alterations is measured as a screen for potential anti-cancer activity. Selected strains with alterations in DNA damage repair or cell cycle control were exposed to compounds and growth inhibition was measured relative to vehicle treated controls. The strain used in this assay is bub3
About 79,000 compounds went through this panel and 15% of them were active in at least one assay; those are over-represented in the sample as a whole.
readout.type: growth inhibition (%)
State just the number; it will be interpreted in %.

Exercise: Provide one value: measured growth inhibition of O=S(=O)(CS(=O)(=O)c1ccccc1Br)c1ccccc1Br
Key: 1.95

Exercise: Look up growth inhibition of O=NN(CCCl)C(=O)NC1CCC(O)CC1 (stereo unspecified) and report it.
Key: -4.2

Exercise: Please list growth inhibition recorded for the compound CC(C)CCCC(C)C1CCC2C3C=C(C(=O)O)C(C)(CCC(=O)O)C3CCC12C (stereo unspecified)
Key: -2.15

Exercise: // fetch growth inhibition given entry CNc1ncnc2c1ncn2C1OC(CO)C(O)C1O (stereo unspecified)
Key: -4.1

Exercise: Indicate the recorded growth inhibition value for this compound: O=C(O)C(=O)Cc1c[nH]c2ccccc12
Key: -11.1

Exercise: Please indicate growth inhibition recorded for Cc1cc2[nH]c3c(C#N)c(O)c(C(C)C)c(=O)n3c2cc1C
Key: 10.8
